System: Plasmodium falciparum
Test: Calibr Malaria Delayed Death Assay SOP
Format: functional, organism-based
Set-up: scale not given: in the data most compounds retested in dose-response had high values
Conditions: concentration 4.99e-06 (unit not given; other assays of the set use mol/L)
Screen size: about 38,000 compounds; about 1,200 (3.2%) showed an effect of 50% or more. The median lay at about -58%. The sample as a whole holds a higher share of strong results than the screen did.
Class key for Percent Effect values: A (below -80%), B (-80% to below -30%), C (-30% or more)

Use these answered entries as a reference point.
{"COMPOUND": "CN(C)S(=O)(=O)c1ccc2c(c1)N(Cc1ccccn1)CCC2", "CLASSIFICATION": "A"}
{"COMPOUND": "CSCc1cccc(S(=O)(=O)NCCO)c1", "CLASSIFICATION": "B"}

Exam item: Returns: class label. Input: Cc1nc2c(c(N(C)CC3Cc4ccccc4CN3C)n1)CCNCC2 (configuration not stated)
Marked response: C

Exam item: Returns: class label. Input: Cc1cc(C(F)(F)F)nc(CCNC(C)Cn2nc(C)cc2C)n1 (configuration not stated)
Marked response: C

Exam item: Returns: class label. Input: CC1c2ncc(Cn3cccn3)n2CCN1S(C)(=O)=O.O=C(O)C(F)(F)F (configuration not stated)
Marked response: A

Exam item: Returns: class label. Input: CCNS(=O)(=O)c1cccc(CSC)c1
Marked response: A

Exam item: Returns: class label. Input: O=C(NCCNC1CCN(c2nccs2)CC1)c1cccs1
Marked response: C

Exam item: Returns: class label. Input: CC1CCN(C(CNC(=O)CCn2cccn2)c2cccs2)CC1 (configuration not stated)
Marked response: B

Exam item: Returns: class label. Input: CCc1cc(N2CCC(NCCc3ccccc3F)CC2)nc(C)n1
Marked response: C

Exam item: Returns: class label. Input: Cc1nc2c(c(N(C)Cc3ccccc3-n3cccn3)n1)CCNCC2
Marked response: C

###

Test system: Plasmodium falciparum
Assay: Calibr Malaria Delayed Death Assay SOP
Format: functional, organism-based
Design: scale not given: in the data most compounds retested in dose-response had high values
Conditions: concentration 4.99e-06 (unit not given; other assays of the set use mol/L)
The campaign covered roughly 38,000 compounds. About 1,200 (3.2%) showed an effect of 50% or more. The median lay at about -58%. This excerpt belongs to a sample that is enriched for strong results.
Lab note: compare Percent Effect against -10%. Equal or greater, write rule met. Smaller, write rule not met.

Use these answered entries as a reference point.
{"COMPOUND": "O=C(CN1CCCC1c1nc2cc(F)ccc2[nH]1)NCc1ccccn1 (configuration not stated)", "STUDY_TARGET": "Plasmodium falciparum", "CLASSIFICATION": "rule not met"}
{"COMPOUND": "CN(C)CCN1CCO[C@@H]2CCN(C(=O)c3cccn3C)CC[C@H]21", "STUDY_TARGET": "Plasmodium falciparum", "CLASSIFICATION": "rule not met"}
{"COMPOUND": "O=C(C1CNCCO1)N1CCC(c2cc(N3CCCC3)ncn2)CC1 (configuration not stated)", "STUDY_TARGET": "Plasmodium falciparum", "CLASSIFICATION": "rule not met"}
{"COMPOUND": "c1cnn(CC2CN(Cc3nnc(C4CC4)o3)CCO2)c1 (configuration not stated)", "STUDY_TARGET": "Plasmodium falciparum", "CLASSIFICATION": "rule not met"}
{"COMPOUND": "CN(C)CCn1ccnc1C1CCCN(c2cc(N)ncn2)C1 (configuration not stated)", "STUDY_TARGET": "Plasmodium falciparum", "CLASSIFICATION": "rule not met"}

Exam item: Does Percent Effect meet or surpass -10% for CN(C)CCN(C)C(=O)Cc1ccc2c(c1)OCCO2.O=C(O)CC(O)(CC(=O)O)C(=O)O ?
Marked response: rule not met

Exam item: Does Percent Effect meet or surpass -10% for COc1cc(CN(CCCN(C)C)Cc2ccccn2)cc2c1OCO2.O=C(O)CC(O)(CC(=O)O)C(=O)O ?
Marked response: rule met

Exam item: Does Percent Effect meet or surpass -10% for O=C(c1cccc(CO)n1)N1CCCC1c1nc2cc(F)ccc2[nH]1 (configuration not stated) ?
Marked response: rule not met

Exam item: Does Percent Effect meet or surpass -10% for Cc1cc(C)nc(N2CCCC(c3nccn3CCCN(C)C)C2)c1 (configuration not stated) ?
Marked response: rule met

Exam item: Does Percent Effect meet or surpass -10% for COc1ccccc1CN(Cc1cccnc1)CC1CCCO1.O=C(O)CC(O)(CC(=O)O)C(=O)O (configuration not stated) ?
Marked response: rule met

Exam item: Does Percent Effect meet or surpass -10% for Fc1cc(Cl)cnc1N1CCCC(c2nccn2CC2CC2)C1 (configuration not stated) ?
Marked response: rule met

Exam item: Does Percent Effect meet or surpass -10% for NC(=O)C(CNC(=O)Cc1ccsc1)Cc1ccc(F)cc1 (configuration not stated) ?
Marked response: rule not met

Exam item: Does Percent Effect meet or surpass -10% for CNC(=O)CS(=O)(=O)C1CCN(S(=O)(=O)c2ccccc2Cl)CC1 ?
Marked response: rule not met

Exam item: Does Percent Effect meet or surpass -10% for O=C(c1cccc(CNS(=O)(=O)c2ccccc2F)c1)N1CCCC1 ?
Marked response: rule not met
